assay name: in vivo
stated conditions: mouse
experimental endpoint: half-life (min)

{"compound": "CN[C@@H]1[C@H](O)[C@H](NC)[C@H]2O[C@]3(O)[C@H](O[C@@H]2[C@H]1O)O[C@H](C)C[C@H]3NC(=O)Cc1ccc(O)cn1 [Spectinamide 1810]", "recorded number": 5}

---

assay name: Fraction unbound in epithelial lining fluid calculated by Poulin and Theil equation, mouse
stated conditions: epithelial lining fluid (calculated), calculated from fu in plasma and albumin ratio plasma/ELF, read-out: fuELF fraction unbound in epithelial lining fluid
Experimental: For intravenous administration, the bolus dose was assumed to be mixed instantaneously into the venous blood. For subcutaneous administration, the dose was administered as an external compartment, absorbed into the venous compartment via a first-order absorption rate constant and a bioavailability component. […] The fraction unbound in ELF was calculated from the fraction unbound in plasma and the albumin ratio between plasma and ELF using the equation described by Poulin and Theil.

{"compound": "CN[C@@H]1[C@H](O)[C@H](NC)[C@H]2O[C@]3(O)[C@H](O[C@@H]2[C@H]1O)O[C@H](C)C[C@H]3NC(=O)Cc1ccc(O)cn1 [Spectinamide 1810]", "fraction unbound": 0.965}
